Where do the numbers come from? From PubChem BioAssay AID651847.

assay: dose response, V. cholerae BH1651, dry powder (AID 651847); conditions: V. cholerae BH1651 luxOD47E, luciferase light induction, 6 h; at 80 µM (top of the series) unless noted
Inconclusive results are not listed.
I would appreciate it if you labelled entries condition met when activation (light induction) is 10% or higher, otherwise condition not met.

Look over these answered cases.
1) CC(C)c1ccc(CNc2nnnn2C)cc1	condition met
2) CC(C)NC(=O)Cc1ccc(-c2ccccc2)cc1	condition met
3) c1ccc(Cn2nnnc2NCc2ccc(N3CCCC3)cc2)cc1	condition not met
4) O=C(Cc1cccc(OC(F)(F)F)c1)NC1CCCC1	condition not met
5) CS(=O)(=O)c1ccc(CC(=O)NC2CCCC2)cc1	condition not met
6) CCC(CC)NC(=O)Cc1ccc(-c2ccccc2)cc1	condition not met
7) Cc1ccccc1CC(=O)NC1CCCC1	condition met
8) CCn1nnnc1NCc1cccc(OC)c1	condition not met

[Q] Record CCn1nccc1NCc1ccc(N2CCCC2)cc1 ; criterion: activation (light induction) no lower than 10%. Met?
[A] condition met

[Q] Decide: activation (light induction) of CCn1nnnc1CCc1ccc(N2CCCC2)cc1 >= 10%?
[A] condition not met
